Hey, just so you know, these numbers are from patent US20250042889A1.

Method: in vivo
Reported Conditions: male, CD1, mouse, in vivo, po, 10 mg/kg
Experimental Endpoint: AUC (ng·h/mL)
Write down the numeric answer in ng·h/mL and omit the unit.

Solved entries:
Compound: CNc1cncc(C(=O)N2CCC[C@@H](Nc3c(C(=O)N4CCCCC4)cc(Br)cc3[N+](=O)[O-])C2)c1 [Example 31]
AUC (ng·h/mL): 369
//
Compound: CNc1cncc(C(=O)N2CCC[C@@H](Nc3c(C(=O)N4C[C@@H](C)O[C@@H](C)C4)cc(Br)cc3[N+](=O)[O-])C2)c1 [Example 34]
AUC (ng·h/mL): 702
//
Compound: CNc1cncc(C(=O)N2CCC[C@@H](Nc3c(C(=O)N4CCCC(F)(F)C4)cc(Br)cc3[N+](=O)[O-])C2)c1 [Example 36]
AUC (ng·h/mL): 273

Input: For the compound CNc1cncc(C(=O)N2CCC[C@@H](Nc3c(C(=O)N4CCOC(F)(F)C4)cc(Br)cc3[N+](=O)[O-])C2)c1 [Example 295] , what AUC is on record?
Output: 494

Input: What do you get for CNc1cncc(C(=O)N2CCC[C@@H](Nc3c(C(=O)N4CCO[C@H](C)C4)cc(Br)cc3[N+](=O)[O-])C2)c1 [Example 35] ?
Output: 668

Input: What do you get for CNc1cncc(C(=O)N2C[C@H](Nc3c(C(=O)N4C[C@@H](C)O[C@@H](C)C4)cc(Br)cc3[N+](=O)[O-])[C@@H](OC)C2)c1 [Example 321] ?
Output: 1350

Input: What do you get for CNc1cncc(C(=O)N2C[C@H](Nc3c(C(=O)N4C[C@@H](C)O[C@@H](C)C4)cc(Br)cc3[N+](=O)[O-])C[C@@H](OC)C2)c1 [Example 422] ?
Output: 628

Input: What do you get for O=C(c1cc(Br)cc([N+](=O)[O-])c1N[C@@H]1CCCN(C(=O)[C@H]2CNCC(F)(F)C2)C1)N1CCCCC1 [Example 320] ?
Output: 280

Input: What do you get for CNc1cncc(C(=O)N2CCC[C@@H](Nc3c(C(=O)N4C5CCCC4COC5)cc(Br)cc3[N+](=O)[O-])C2)c1 [Example 312] ?
Output: 605

###

Target: SARS-COV-2 3CLpro/Mpro protease (Severe acute respiratory syndrome coronavirus 2 (2019-nCoV) (SARS-CoV-2))
Method: Inhibitory effect on SARS-COV-2 3CLpro/Mpro protease by fluorescence resonance energy transfer
Format: biochemical
Reported Conditions: activity intervals A-D, read-out: IC50 (nM), Inhibition on SARS-CoV-2 3CLpro/Mpro protease
IC50: recorded values

Solved entries:
Compound: O=C(c1cc(Br)cc(C(F)(F)F)c1N[C@@H]1CCCN(C(=O)c2cncc3ccccc23)C1)N1CCCCC1
IC50: 10 to 50 nM
--
Compound: CNc1cncc(C(=O)N2CCC[C@@H](Nc3c(C(=O)N4C[C@@H](C)O[C@@H](C)C4)cc(Br)cc3[N+](=O)[O-])C2)c1
IC50: 10 to 50 nM
--
Compound: CNc1cncc(C(=O)N2CCC[C@@H](Nc3c(C(=O)N4CCN(C)CC4)cc(Br)cc3[N+](=O)[O-])C2)c1
IC50: 10 to 50 nM

Input: For the compound CNc1cncc(C(=O)N2C[C@H](Nc3c(C(=O)N4C[C@@H](C)O[C@@H](C)C4)cc(Br)cc3[N+](=O)[O-])CC2C(=O)NCC(F)(F)F)c1 (stereo partly drawn) , what IC50 is on record?
Output: 10 to 50 nM

Input: What do you get for CNc1cncc(C(=O)N2C[C@H](Nc3c(C(=O)N4CC5CCC(C4)O5)cc(Br)cc3[N+](=O)[O-])[C@@H](OC)C2)c1 ?
Output: 10 to 50 nM

Input: What do you get for CNc1cncc(C(=O)N2C[C@H](Nc3c(C(=O)N4C[C@@H](C)O[C@@H](C)C4)cc(Br)cc3[N+](=O)[O-])C[C@H]2C(=O)Nc2nn(CCOC)cc2Br)c1 ?
Output: 50 to 100 nM

###

Target: SARS-COV-2 3CLpro/Mpro protease (Severe acute respiratory syndrome coronavirus 2 (2019-nCoV) (SARS-CoV-2), UniProt P0DTD1)
Method: Inhibitory effect on SARS-COV-2 3CLpro/Mpro protease by fluorescence resonance energy transfer
Format: biochemical
Reported Conditions: activity intervals A-D, read-out: IC50 (nM), Inhibition on SARS-CoV-2 3CLpro/Mpro protease
Experimental Endpoint: IC50

Input: For the molecule CNc1cncc(C(=O)N2CCC[C@@H](Nc3c(C(=O)N4CCCCC4)cc(Br)cc3C(F)(F)F)C2)c1 , what IC50 is on record?
Output: 50 to 100 nM

Input: What do you get for C[C@@H]1CN(C(=O)c2cc(Br)cc([N+](=O)[O-])c2N[C@@H]2CCN(C(=O)c3cncc4cc(Cl)ccc34)C2)C[C@H](C)N1 ?
Output: < 10 nM

###

Target: SARS-COV-2 3CLpro/Mpro protease (Severe acute respiratory syndrome coronavirus 2 (2019-nCoV) (SARS-CoV-2), UniProt P0DTD1)
Method: Inhibitory effect on SARS-COV-2 3CLpro/Mpro protease by fluorescence resonance energy transfer
Format: biochemical
Reported Conditions: activity intervals A-D, read-out: IC50 (nM), Inhibition on SARS-CoV-2 3CLpro/Mpro protease
IC50: recorded values

Compound: O=C(c1cncc(Br)c1)N1CCC[C@@H](Nc2c(C(=O)N3CCCCC3)cc(Br)cc2[N+](=O)[O-])C1
Experimental Endpoint: IC50
Result: < 10 nM

Input: For the compound CNc1cncc(C(=O)N2C[C@H](Nc3c(C(=O)N4C[C@@H](C)O[C@@H](C)C4)cc(Br)cc3[N+](=O)[O-])C[C@H]2C(=O)N2CC(O)C2)c1 , what IC50 is on record?
Output: 50 to 100 nM

Input: What do you get for O=C(c1cncc(Br)c1)N1CCC[C@@H](Nc2c(C(=O)N3CCC(F)(F)CC3)cc(Br)cc2C(F)(F)F)C1 ?
Output: 10 to 50 nM

Input: What do you get for CNc1cncc(C(=O)N2C[C@H](Nc3c(C(=O)N4C[C@@H](C)O[C@@H](C)C4)cc(Br)cc3[N+](=O)[O-])[C@@H](OCc3ccc(OC)nc3)C2)c1 ?
Output: 10 to 50 nM

Input: What do you get for CNc1cncc(C(=O)N2C[C@H](Nc3c(C(=O)N4C[C@@H](C)O[C@@H](C)C4)cc(Br)cc3[N+](=O)[O-])C(F)(F)C2)c1 ?
Output: 10 to 50 nM

Input: What do you get for CO[C@H]1CN(C(=O)c2cncc3[nH]cnc23)C[C@@H]1Nc1c(C(=O)N2C[C@@H](C)O[C@@H](C)C2)cc(Br)cc1[N+](=O)[O-] ?
Output: 10 to 50 nM

Input: What do you get for CNc1cncc(C(=O)N2CCC[C@@H](Nc3c(C(=O)N4C[C@@H](C)N(C)[C@@H](C)C4)cc(Br)cc3[N+](=O)[O-])C2)c1 ?
Output: 50 to 100 nM

###

Target: SARS-COV-2 3CLpro/Mpro protease (Severe acute respiratory syndrome coronavirus 2 (2019-nCoV) (SARS-CoV-2), UniProt P0DTD1)
Method: Inhibitory effect on SARS-COV-2 3CLpro/Mpro protease by fluorescence resonance energy transfer
Type: biochemical
Reported Conditions: activity intervals A-D, read-out: IC50 (nM), Inhibition on SARS-CoV-2 3CLpro/Mpro protease
IC50: recorded values

Input: For the molecule O=C(N[C@H]1CCCC[C@H]1Nc1c(C(=O)N2CCCCC2)cc(Br)cc1[N+](=O)[O-])c1cncc(Br)c1 , what IC50 is on record?
Output: 10 to 50 nM

Input: What do you get for Cc1cc(C(=O)N2C[C@H](Nc3c(C(=O)NCc4ccc(Cl)cc4)cc(Br)cc3[N+](=O)[O-])C3(CC3)C2)cc(=O)[nH]1 ?
Output: 10 to 50 nM

Input: What do you get for O=C(c1cncc(Br)c1)N1CC[C@@H](Nc2c(C(=O)N3CCCCC3)cc(Br)cc2C(F)(F)F)C1 [Example 47] ?
Output: 10 to 50 nM

Input: What do you get for O=C(N[C@H]1CCCC[C@H]1Nc1c(C(=O)N2CCCCC2)cc(Br)cc1C(F)(F)F)c1cncc2ccccc12 ?
Output: < 10 nM

Input: What do you get for CNc1cncc(C(=O)N2C[C@H](Nc3c(C(=O)N4C[C@@H](C)N[C@@H](C)C4)cc(Br)cc3[N+](=O)[O-])C3(CC3)C2)c1 ?
Output: 10 to 50 nM

Input: What do you get for O=C(c1cc(Br)cc([N+](=O)[O-])c1N[C@@H]1CCCN(C(=O)[C@H]2CNCC(F)(F)C2)C1)N1CCO[C@H](C(F)(F)F)C1 ?
Output: 10 to 50 nM
